- System: A498 renal
- test_summary: NCI tumour cell line growth inhibition, 48 h; in the data active = GI50 below about 0.43 µM; inactive = the rest
Classes used: true for active, false for inactive

* O=C1NC(=NCCc2ccc(Cl)cc2)S/C1=C\c1ccc2ncccc2c1 | false
* COc1cc(C2CC(c3ccc(Nc4nc(NCCO)nc(NCCO)n4)cc3)=NN2c2cc(Cl)cc(Cl)c2)cc(OC)c1OC (centres undefined) | false
* O=C(Nc1n[nH]c2cc(-c3cc(F)ccc3F)ccc12)C1CC1 | false
* COC1=CC(c2ccc[nH]2)=N/C1=C\c1[nH]c(C)c(C(=O)CCCCCCCCC(=O)O[C@H]2CC[C@H]3C4CCc5cc(O)ccc5C4CC[C@]23C)c1C (some centres undefined) | false
* C[C@@H]1C[C@@H]([C@H](O)CC2CC(=O)NC(=O)C2)C(=O)[C@@H](C)C1 | false
* O=C1c2cc3c(cc2-c2c1c1cc(F)c(F)cc1c(=O)n2CCCn1ccnc1)OCO3 | true
* CSc1nc(Nc2cccc(NC(=O)CCl)c2)c(C#N)c(-c2cccc([N+](=O)[O-])c2)n1 | false
* COc1ccc(-c2ccc(OC)c(OC)c2OC)cc1 | false
* COc1cc(/C=N/NC(=O)c2cnn3c2NC(c2ccccc2)C3)ccc1OC1CCCC1 (centres undefined) | true
